Molecular target: human EP3 receptor (Homo sapiens (Human))
Sequence (P43115 whole entry): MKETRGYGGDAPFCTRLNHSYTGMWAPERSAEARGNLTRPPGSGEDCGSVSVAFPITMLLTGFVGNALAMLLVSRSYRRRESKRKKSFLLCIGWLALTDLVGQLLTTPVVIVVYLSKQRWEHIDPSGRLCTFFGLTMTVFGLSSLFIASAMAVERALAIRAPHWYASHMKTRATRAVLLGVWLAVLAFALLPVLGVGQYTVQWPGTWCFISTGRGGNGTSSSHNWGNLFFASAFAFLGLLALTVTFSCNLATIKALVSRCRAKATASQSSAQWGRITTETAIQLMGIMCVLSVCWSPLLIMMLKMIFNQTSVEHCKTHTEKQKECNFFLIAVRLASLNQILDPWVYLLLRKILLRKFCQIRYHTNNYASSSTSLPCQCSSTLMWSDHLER
Test: Measurement of EP3 receptor binding affinity ([3H]PGE2 displacement, membrane fraction of Chem-1 cells)
Conditions: [3H]PGE2 2 nM, Chem-1 membrane fraction; Table 4
pKi: −log10 of the molar value.
propertyLabel: pKi

Q. Request body: readout pKi, system human EP3 receptor (Homo sapiens (Human)), query O=C(O)CNc1cccc(CN(Cc2ccc(-c3nccs3)cc2)S(=O)(=O)c2ccccn2)n1 [Example 3] . Return the value.
A. < 5.00

###

Biological target: UniProt:P43115
Assay: Measurement of EP3 receptor binding affinity ([3H]PGE2 displacement, membrane fraction of Chem-1 cells)
pKi: −log10 of the molar value. Structures can show the parent of a compound that is named as a salt.
propertyLabel: pKi

Q. Recorded pKi for O=C(O)CNc1cccc(CN(Cc2ccc(-c3nccs3)cc2)S(=O)(=O)c2cccnc2)n1 [Example 11, Trifluoroacetate] , please?
A. < 5.00

Q. Recorded pKi of O=C(O)CNc1cccc(CN(Cc2ccc(-c3nccs3)cc2)S(=O)(=O)c2ccc(F)cc2)n1 , please.
A. < 5.00

###

Biological target: human EP2 receptor (Homo sapiens (Human))
Sequence (P43116 whole entry): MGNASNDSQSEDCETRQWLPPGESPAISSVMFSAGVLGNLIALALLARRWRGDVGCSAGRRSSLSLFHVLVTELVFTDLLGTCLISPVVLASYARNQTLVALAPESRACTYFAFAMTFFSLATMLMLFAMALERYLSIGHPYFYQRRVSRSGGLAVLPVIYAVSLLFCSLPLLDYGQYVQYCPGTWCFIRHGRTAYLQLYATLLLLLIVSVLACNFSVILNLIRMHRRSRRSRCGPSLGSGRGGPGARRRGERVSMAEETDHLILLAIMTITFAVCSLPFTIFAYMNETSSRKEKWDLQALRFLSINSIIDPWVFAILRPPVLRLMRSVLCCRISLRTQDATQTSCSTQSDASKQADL
Experiment: Measurement of EP2 receptor binding affinity ([3H]PGE2 displacement, membrane fraction of HEK293 cells)
Conditions: PGE2 receptor selectivity, Table 4; read-out: EP2 receptor binding affinity Ki value
propertyLabel: Ki
Write the quantity with the unit trailing the number.

Q. Could you tell me which Ki is on file for O=C(O)CNc1cccc(CN(Cc2ccc(-c3nccs3)cc2)S(=O)(=O)c2ccccn2)n1 ?
A. 1.9 nM

###

Biological target: human EP2 receptor (Homo sapiens (Human))
Experiment: Measurement of EP2 agonist activity (cAMP amount in HEK 293 cells)
Details: cAMP increase in HEK 293 cells expressing human EP2 receptor, 30 minutes
Method: Measurement of EP2 agonist activity was carried out according to the method of Wilson et al. (European Journal of Pharmacology, 501, 49 (2004)). HEK 293 cells (ES-562-C, available from Euroscreen S.A.) expressed human EP2 receptor were cultured in a MEM medium containing 10% FBS and seeded at 2×10^4 cells per each well of a 96-well plate. […] After 30 minutes, an amount of cAMP in the cells was measured with a cAMP Biotrak EIA System kit (available from GE Healthcare Bioscience).
propertyLabel: pEC50
# log scale: pEC50 equals minus log10 of the concentration in mol/L

Q. pEC50 for O=C(O)CNc1cccc(CN(Cc2ccc(-c3nccs3)cc2)S(=O)(=O)c2ccc(F)cc2)n1 ?
A. 9.54

Q. Consider the compound shown here: O=C(O)CNc1cccc(CN(Cc2ccc(-c3nccs3)cc2)S(=O)(=O)c2ccccn2)n1 What is its recorded pEC50?
A. 9.35
